# assayNotes: Acute toxicity (DL50) in mice
# testConditions: mouse, in vivo, po, orally
metricName: LD50 (mg/kg)
Your answer should be a plain number; it is taken to be in mg/kg.

Request: Consider the compound shown here: `CC(=N)Nc1c(Cl)cccc1Cl` What is its recorded LD50?
Response: 420

---

# assayNotes: Acute toxicity (DL50) in mice
# testConditions: mouse, in vivo, ip
metricName: LD50 (mg/kg)
Your answer should be a plain number; it is taken to be in mg/kg.

Request: Consider the compound shown here: `CC(=N)Nc1c(Cl)cccc1Cl` What is its recorded LD50?
Response: 170
